target or system: STAT3 (NIH3T3/v-Src nuclear extracts) (Mus musculus)
Construct: nuclear extracts prepared from v-Src-transformed mouse fibroblasts (NIH3T3/v-Src) containing active STAT3; endogenous in cells; host or cells: NIH3T3/v-Src mouse fibroblasts (nuclear extract)
Sequence (P42227 whole entry): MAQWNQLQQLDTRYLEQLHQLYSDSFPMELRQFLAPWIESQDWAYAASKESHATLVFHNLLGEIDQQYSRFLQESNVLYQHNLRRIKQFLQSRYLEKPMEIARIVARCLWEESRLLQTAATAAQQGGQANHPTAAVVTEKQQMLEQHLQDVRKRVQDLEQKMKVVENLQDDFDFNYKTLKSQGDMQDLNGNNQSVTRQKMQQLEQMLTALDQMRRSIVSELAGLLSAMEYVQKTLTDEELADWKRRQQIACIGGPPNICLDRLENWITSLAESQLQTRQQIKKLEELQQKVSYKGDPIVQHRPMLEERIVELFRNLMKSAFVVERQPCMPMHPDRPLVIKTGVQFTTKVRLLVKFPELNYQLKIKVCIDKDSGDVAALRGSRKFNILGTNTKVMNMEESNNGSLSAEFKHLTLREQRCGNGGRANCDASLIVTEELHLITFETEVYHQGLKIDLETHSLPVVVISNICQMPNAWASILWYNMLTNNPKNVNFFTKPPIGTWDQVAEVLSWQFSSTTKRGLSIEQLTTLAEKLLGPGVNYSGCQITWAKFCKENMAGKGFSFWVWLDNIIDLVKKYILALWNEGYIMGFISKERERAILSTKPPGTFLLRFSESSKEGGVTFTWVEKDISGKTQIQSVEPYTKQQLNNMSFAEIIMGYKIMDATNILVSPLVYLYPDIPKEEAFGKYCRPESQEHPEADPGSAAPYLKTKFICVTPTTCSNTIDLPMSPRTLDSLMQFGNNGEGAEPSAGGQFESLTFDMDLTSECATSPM
experiment: In vitro STAT3 DNA-binding activity/EMSA, nuclear extracts incubated with compound
Format: biochemical
condition description: 5 micromolar, 30 min at room temperature
Method: To further determine the effects of the bioactive agents on STAT3 activity, nuclear extracts prepared from v-Src-transformed mouse fibroblasts (NIH3T3/v-Src) containing active STAT3 were directly incubated with 5 micromolar compounds for 30 min at room temperature prior to performing STAT3 DNA-binding activity in vitro with EMSA analysis. […] These studies indicate that agents directly interact with STAT3 and disrupt STAT3:STAT3 dimers, thereby inhibiting its DNA-binding activity. […]
readout type: Inhibition of STAT3 DNA-binding activity in vitro (EMSA)

>  <molecule>
C=C(C)C(=O)OC1CC(C)C2(OC)CCC(C)(C=C3OC(=O)C(CO)=C31)O2 (stereo not shown) [Compound 28]

>  <reported value>
moderate to no effect

$$$$
>  <molecule>
CC=C(C)C(=O)OC1CC(C)C2(O)CCC(C)(C=C3OC(=O)C(CO)=C31)O2 (stereo not shown) [Compound 19]

>  <reported value>
moderate to no effect

$$$$
>  <molecule>
C=C(C)C(=O)OC1CC(C)C2(O)CCC(C)(C=C3OC(=O)C(CO)=C31)O2 (stereo not shown) [Compound 18]

>  <reported value>
moderate to no effect

$$$$

====

target or system: Stat3 (Homo sapiens)
Sequence (P40763 whole entry, species assumed): as the sequence (P42227 whole entry) above, with D760E counted along it
experiment: Activity against Stat3 (Table 1 grade)
Format: biochemical
Parameters: key: +, active; −, no activity; +/−, poorly active
condition description: Table 1/FIG. 2 compound numbering
readout type: Activity against Stat3

>  <compound>
C=C(C)C(=O)OC1CC(C)C2(O)CCC(C)(C=C3OC(=O)C(CO)=C31)O2 (stereo not shown)

>  <reported value>
−

$$$$
>  <compound>
CC=C(C)C(=O)OC1CC(C)C2(O)CCC(C)(C=C3OC(=O)C(CO)=C31)O2 (stereo not shown)

>  <reported value>
−

$$$$
>  <compound>
CC=C(C)C(=O)OC1CC(C)C2(O)CCC(C)(C=C3OC(=O)C(COC(C)=O)=C31)O2 (stereo not shown)

>  <reported value>
+

$$$$
>  <compound>
C=C(C)C(=O)OC1CC(C)C2(OC)CCC(C)(C=C3OC(=O)C(CO)=C31)O2 (stereo not shown)

>  <reported value>
−

$$$$
